Test system: 92.1 uveal melanoma cell line (heterozygous GNAQ Q209L)
testName: Cell proliferation assay (resazurin cell viability), 92.1 cell line
Type: cell-based
details: 92.1 cell line, replicate 1; read-out: GI50 92.1 Rep. 1
Starred links: 1 amine or outer side, 2 acyl side, 3 side chain; linkers in the order of their positions; H or OH if unused. Positions of bridges follow the written chain, without caps; N, C: chain ends. Non-standard residues stand in square brackets, D forms with d. Residues, ends and D or L forms follow the SMILES beside them. ξ: configuration not given here. *: point of attachment. Leu(3R-O(AcLeu(3R-OH))) = CC(=O)N[C@H](C(=O)O[C@H](C(C)C)[C@H](N)C(=O)O)[C@H](O)C(C)C; Leu(3R-OH,Nα-propionyl) = CCC(=O)N[C@H](C(=O)*)[C@H](O)C(C)C; X1 = CC(C)[C@@H](O[*:3])[C@H](N[*:1])C(=O)[*:2]; X5 = CSC[C@@H](O[*:3])[C@H](N[*:1])C(=O)[*:2]; X3 = CC(C)C(O[*:3])C(N[*:1])C(=O)[*:2]; X4 = CCC(=O)N[C@H](C(=O)*)[C@H](O)CSC; ξLeu(3ξ-OH) = CC(C)C(O)C(N)C(=O)O; NMeT = CN[CH](C(=O)O)[CH](C)O; dPhLac = O=C(O)[C@H](O)Cc1ccccc1; PhLac = O=C(O)[CH](O)Cc1ccccc1; NMeA = CN[CH](C)C(=O)O; dNMeA = CN[C@H](C)C(=O)O; NMeDha = C=C(NC)C(=O)O; Propionyl = CCC(=O)*
attributeMeasured: log10 of GI50 (log10 of the value in nM)
Quick note: numbers are log10 of GI50, with nM as the unit.

Known results for compounds:
[
  {
    "compound": "CCC(=O)N[C@H](C(=O)O[C@H](C(C)C)[C@@H]1NC(=O)[C@H](C)N(C)C(=O)[C@H](C)NC(=O)[C@@H](C)N(C)C(=O)[C@@H](Cc2ccccc2)OC(=O)[C@@H](NC(C)=O)[C@@H](C(C)C)OC(=O)[C@H]([C@@H](C)OC)N(C)C1=O)[C@H](O)C(C)C [Compound 11] (Ac-[X1][dPhLac][dNMeA]A[NMeA][X1](Leu(3R-OH,Nα-propionyl))[NMeT](Me); ester 1-C)",
    "log10 of GI50": 0.15
  },
  {
    "compound": "C=C1C(=O)N[C@@H](C)C(=O)N(C)[C@@H](C)C(=O)N[C@@H]([C@H](OC(=O)[C@@H](NC(C)=O)[C@H](O)C(C)C)C(C)C)C(=O)N(C)[C@@H]([C@@H](C)OC)C(=O)O[C@H](C(C)C)[C@H](NC(C)=O)C(=O)O[C@H](Cc2ccccc2)C(=O)N1C [Compound 8] (Ac-[X1][dPhLac][NMeDha]A[NMeA][Leu(3R-O(AcLeu(3R-OH)))][NMeT](Me); ester 1-C)",
    "log10 of GI50": -0.09
  },
  {
    "compound": "C=C1C(=O)NC(C)C(=O)N(C)C(C)C(=O)NC(C(O)C(C)C)C(=O)N(C)C(C(C)OC)C(=O)OC(C(C)C)C(NC(C)=O)C(=O)OC(Cc2ccccc2)C(=O)N1C (centres unmarked) [Compound 12] (Ac-[X3][PhLac][NMeDha]A[NMeA][ξLeu(3ξ-OH)][NMeT](Me); ester 1-C; configuration not given here)",
    "log10 of GI50": 3.05
  },
  {
    "compound": "C=C1C(=O)N[C@@H](C)C(=O)N(C)[C@@H](C)C(=O)N[C@@H]([C@H](OC(=O)[C@@H](NC(=O)CC)[C@H](O)C(C)C)C(C)C)C(=O)N(C)[C@@H]([C@@H](C)OC)C(=O)O[C@H](C(C)C)[C@H](NC(=O)CC)C(=O)O[C@H](Cc2ccccc2)C(=O)N1C [Compound 9] (Propionyl-[X1][dPhLac][NMeDha]A[NMeA][X1](Leu(3R-OH,Nα-propionyl))[NMeT](Me); ester 1-C)",
    "log10 of GI50": 0.08
  },
  {
    "compound": "C=C1C(=O)N[C@@H](C)C(=O)N(C)[C@@H](C)C(=O)N[C@@H]([C@@H](CSC)OC(=O)[C@@H](NC(=O)CC)[C@H](O)C(C)C)C(=O)N(C)[C@@H]([C@@H](C)OC)C(=O)O[C@H](C(C)C)[C@H](NC(C)=O)C(=O)O[C@H](Cc2ccccc2)C(=O)N1C [Compound 3] (Ac-[X1][dPhLac][NMeDha]A[NMeA][X5](Leu(3R-OH,Nα-propionyl))[NMeT](Me); ester 1-C)",
    "log10 of GI50": 0.96
  }
]

stdin: Look up log10 of GI50 for this compound: C=C1C(=O)N[C@@H](C)C(=O)N(C)[C@@H](C)C(=O)N[C@@H]([C@H](OC(=O)[C@@H](NC(=O)CC)[C@H](O)CSC)C(C)C)C(=O)N(C)[C@@H]([C@@H](C)OC)C(=O)O[C@H](C(C)C)[C@H](NC(C)=O)C(=O)O[C@H](Cc2ccccc2)C(=O)N1C [Compound 4] (Ac-[X1][dPhLac][NMeDha]A[NMeA][X1](X4)[NMeT](Me); ester 1-C)
stdout: -0.04

====

The entries below are paired with their reported GI50.
Tested on: SK-MEL-30 skin melanoma cell line (heterozygous NRAS Q61K)
testName: Cell proliferation assay (resazurin cell viability), SK-MEL-30 cell line
Format: cell-based
details: SK-MEL-30 (GNAQ/11 wild type); 96 hours of treatment; read-out: GI50 by cell line, SK-MEL-30
Starred links: 1 amine or outer side, 2 acyl side, 3 side chain; linkers in the order of their positions; H or OH if unused. Positions of bridges follow the written chain, without caps; N, C: chain ends. Non-standard residues stand in square brackets, D forms with d. Residues, ends and D or L forms follow the SMILES beside them. ξ: configuration not given here. Leu(3R-O(AcLeu(3R-OH))) = CC(=O)N[C@H](C(=O)O[C@H](C(C)C)[C@H](N)C(=O)O)[C@H](O)C(C)C; X3 = CC(C)C(O[*:3])C(N[*:1])C(=O)[*:2]; ξLeu(3ξ-OH) = CC(C)C(O)C(N)C(=O)O; NMeT = CN[CH](C(=O)O)[CH](C)O; dPhLac = O=C(O)[C@H](O)Cc1ccccc1; PhLac = O=C(O)[CH](O)Cc1ccccc1; NMeA = CN[CH](C)C(=O)O; NMeDha = C=C(NC)C(=O)O

[
  {
    "compound": "C=C1C(=O)NC(C)C(=O)N(C)C(C)C(=O)NC(C(O)C(C)C)C(=O)N(C)C(C(C)OC)C(=O)OC(C(C)C)C(NC(C)=O)C(=O)OC(Cc2ccccc2)C(=O)N1C (stereo not drawn) [Compound 12] (Ac-[X3][PhLac][NMeDha]A[NMeA][ξLeu(3ξ-OH)][NMeT](Me); ester 1-C; configuration not given here)",
    "GI50": "> 10000 nM"
  },
  {
    "compound": "C=C1C(=O)NC(C)C(=O)N(C)C(C)C(=O)NC(C(O)C(C)C)C(=O)N(C)C(C(C)OC)C(=O)OC(C)C(NC(C)=O)C(=O)OC(Cc2ccccc2)C(=O)N1C (stereo not drawn) [Compound 15] (Ac-T[PhLac][NMeDha]A[NMeA][ξLeu(3ξ-OH)][NMeT](Me); ester 1-C; configuration not given here)",
    "GI50": "> 10000 nM"
  }
]

stdin: Look up GI50 for this compound: C=C1C(=O)N[C@@H](C)C(=O)N(C)[C@@H](C)C(=O)N[C@@H]([C@H](OC(=O)[C@@H](NC(C)=O)[C@H](O)C(C)C)C(C)C)C(=O)N(C)[C@@H]([C@@H](C)OC)C(=O)O[C@H](C)[C@H](NC(C)=O)C(=O)O[C@H](Cc2ccccc2)C(=O)N1C [Compound 13] (Ac-T[dPhLac][NMeDha]A[NMeA][Leu(3R-O(AcLeu(3R-OH)))][NMeT](Me); ester 1-C)
stdout: > 260 nM

====

The entries below are paired with their reported Papp A − B.
Tested on: MDCK-LE monolayers
testName: Cell-based transwell assay with MDCK-low efflux monolayers (passive permeability)
Format: in vitro ADME
details: MDCK-LE monolayers
Starred links: 1 amine or outer side, 2 acyl side, 3 side chain; linkers in the order of their positions; H or OH if unused. Positions of bridges follow the written chain, without caps; N, C: chain ends. Non-standard residues stand in square brackets, D forms with d. Residues, ends and D or L forms follow the SMILES beside them. ξ: configuration not given here. *: point of attachment. Leu(3R-O(AcLeu(3R-OH))) = CC(=O)N[C@H](C(=O)O[C@H](C(C)C)[C@H](N)C(=O)O)[C@H](O)C(C)C; Leu(3R-OH,Nα-propionyl) = CCC(=O)N[C@H](C(=O)*)[C@H](O)C(C)C; X1 = CC(C)[C@@H](O[*:3])[C@H](N[*:1])C(=O)[*:2]; ξLeu(3ξ-OH) = CC(C)C(O)C(N)C(=O)O; NMeT = CN[CH](C(=O)O)[CH](C)O; dPhLac = O=C(O)[C@H](O)Cc1ccccc1; X2 = CC(C)C=C(N[*:1])C(=O)[*:2]; PhLac = O=C(O)[CH](O)Cc1ccccc1; NMeA = CN[CH](C)C(=O)O; NMeDha = C=C(NC)C(=O)O
Numbers only; they are read as ×10⁻⁶ cm/s.

Known results for molecules:
[
  {
    "molecule": "C=C(C(=O)N[C@@H](C)C(=O)N(C)[C@@H](C)C(=O)N[C@H](C(=O)N(C)[C@H](C(=O)O)[C@@H](C)OC)[C@H](OC(=O)[C@@H](NC(=O)CC)[C@H](O)C(C)C)C(C)C)N(C)C(=O)[C@@H](Cc1ccccc1)OC(=O)C(=CC(C)C)NC(C)=O [Compound 5] (Ac-[X2][dPhLac][NMeDha]A[NMeA][X1](Leu(3R-OH,Nα-propionyl))[NMeT](Me)-OH)",
    "assayedSystem": "MDCK-LE monolayers",
    "unitText": "×10⁻⁶ cm/s",
    "reported": 0.27
  },
  {
    "molecule": "C=C1C(=O)N[C@@H](C)C(=O)N(C)[C@@H](C)C(=O)N[C@@H]([C@H](OC(=O)[C@@H](NC(=O)CC)[C@H](O)C(C)C)C(C)C)C(=O)N(C)[C@@H]([C@@H](C)OC)C(=O)O[C@H](C)[C@H](NC(C)=O)C(=O)O[C@H](Cc2ccccc2)C(=O)N1C [Compound 14] (Ac-T[dPhLac][NMeDha]A[NMeA][X1](Leu(3R-OH,Nα-propionyl))[NMeT](Me); ester 1-C)",
    "assayedSystem": "MDCK-LE monolayers",
    "unitText": "×10⁻⁶ cm/s",
    "reported": 3.32
  },
  {
    "molecule": "C=C1C(=O)N[C@@H](C)C(=O)N(C)[C@@H](C)C(=O)N[C@@H]([C@H](OC(=O)[C@@H](NC(C)=O)[C@H](O)C(C)C)C(C)C)C(=O)N(C)[C@@H]([C@@H](C)OC)C(=O)O[C@H](C)[C@H](NC(C)=O)C(=O)O[C@H](Cc2ccccc2)C(=O)N1C [Compound 13] (Ac-T[dPhLac][NMeDha]A[NMeA][Leu(3R-O(AcLeu(3R-OH)))][NMeT](Me); ester 1-C)",
    "assayedSystem": "MDCK-LE monolayers",
    "unitText": "×10⁻⁶ cm/s",
    "reported": 2.69
  }
]

stdin: Test system MDCK-LE monolayers; read-out Papp A − B; what value for C=C1C(=O)N[C@@H](C)C(=O)N(C)[C@@H](C)C(=O)N[C@@H]([C@H](OC(=O)[C@@H](NC(C)=O)[C@H](O)C(C)C)C(C)C)C(=O)N(C)[C@@H]([C@@H](C)OC)C(=O)O[C@H](C(C)C)[C@H](NC(C)=O)C(=O)O[C@H](Cc2ccccc2)C(=O)N1C [Compound 8] (Ac-[X1][dPhLac][NMeDha]A[NMeA][Leu(3R-O(AcLeu(3R-OH)))][NMeT](Me); ester 1-C) ?
stdout: 5.84

stdin: Test system MDCK-LE monolayers; read-out Papp A − B; what value for C=C1C(=O)NC(C)C(=O)N(C)C(C)C(=O)NC(C(O)C(C)C)C(=O)N(C)C(C(C)OC)C(=O)OC(C)C(NC(C)=O)C(=O)OC(Cc2ccccc2)C(=O)N1C (stereo not drawn) [Compound 15] (Ac-T[PhLac][NMeDha]A[NMeA][ξLeu(3ξ-OH)][NMeT](Me); ester 1-C; configuration not given here) ?
stdout: 0.79

stdin: Test system MDCK-LE monolayers; read-out Papp A − B; what value for CCC(=O)N[C@H](C(=O)O[C@H](C(C)C)[C@@H]1NC(=O)[C@H](C)N(C)C(=O)[C@H](C)NC(=O)[C@H](C)N(C)C(=O)[C@@H](Cc2ccccc2)OC(=O)[C@@H](NC(C)=O)[C@@H](C(C)C)OC(=O)[C@H]([C@@H](C)OC)N(C)C1=O)[C@H](O)C(C)C [Compound 10] (Ac-[X1][dPhLac][NMeA]A[NMeA][X1](Leu(3R-OH,Nα-propionyl))[NMeT](Me); ester 1-C) ?
stdout: 2.03

Cited source: patent US20240252668A1
